# STUDY SYSTEM: Cytochrome P450 2C19 (Homo sapiens)
# Sequence (P33261 whole entry): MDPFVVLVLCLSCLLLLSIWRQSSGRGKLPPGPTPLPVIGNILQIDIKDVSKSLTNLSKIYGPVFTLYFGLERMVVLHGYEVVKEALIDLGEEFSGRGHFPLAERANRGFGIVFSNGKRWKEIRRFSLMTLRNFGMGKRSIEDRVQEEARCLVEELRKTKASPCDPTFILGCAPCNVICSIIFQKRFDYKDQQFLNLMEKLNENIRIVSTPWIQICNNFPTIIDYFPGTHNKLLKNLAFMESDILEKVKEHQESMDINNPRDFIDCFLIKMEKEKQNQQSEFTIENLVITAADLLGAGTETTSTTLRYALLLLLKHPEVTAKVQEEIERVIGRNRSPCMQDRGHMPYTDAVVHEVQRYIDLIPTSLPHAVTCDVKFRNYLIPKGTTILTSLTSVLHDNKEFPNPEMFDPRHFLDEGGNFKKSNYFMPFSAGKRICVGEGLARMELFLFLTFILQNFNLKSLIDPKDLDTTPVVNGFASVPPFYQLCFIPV
# PROTOCOL TEXT: Cytochrome panel assay with activity outcomes. Panel member name: p450-cyp2c19 Compounds with AC50 equal or less than 10 uM are considered active
# Assay type: functional
# CONDITION NOTES: read-out: AC50
Listing: AC50 of selected molecules
METRIC NAME: AC50

1. N=C(N)SCc1nc2ccccc2c(=O)n1-c1ccccc1Cl = 10 µM (inconclusive)
2. COc1ccc(NC(=O)NC2CC3CCCC(C2)N3Cc2ccccc2)cc1 (stereo not drawn) = 14.1 µM (inconclusive)
3. CC(C)CN1CCCC2(CCN(S(=O)(=O)c3ccccc3)CC2)C1 = 31.6 µM (inconclusive)

---

# STUDY SYSTEM: Caspase-3 (Homo sapiens);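 further: Dose-response selectivity test against caspase-3 for candidate inhibitors of sentrin-specific proteases (SENPs)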
# Sequence (P42574 whole entry): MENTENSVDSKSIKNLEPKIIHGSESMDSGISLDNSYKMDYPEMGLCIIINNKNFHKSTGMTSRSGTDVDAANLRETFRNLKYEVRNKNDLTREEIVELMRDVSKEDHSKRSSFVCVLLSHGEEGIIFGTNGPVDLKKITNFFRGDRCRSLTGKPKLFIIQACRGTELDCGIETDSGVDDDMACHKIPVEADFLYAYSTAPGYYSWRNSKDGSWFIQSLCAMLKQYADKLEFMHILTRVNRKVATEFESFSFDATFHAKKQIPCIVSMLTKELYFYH
# Format: functional
Calls of active or inactive are those of the source.
METRIC NAME: IC50

1. NS(=O)(=O)c1ccc(NC2=CC(=O)C(=O)c3ccccc32)cc1 = 9.75 µM (active)
2. CC(C)n1cnc2c(NCc3ccccc3)cc(OCC3CCN(C)CC3)cc21 = 7.82 µM (active)
3. Fc1cccc2sc(N3CCCCC3)nc12 = 10.7 µM (active)
